- System: RS4-11
- Method: Cytotoxicity against human RS4-11 cells assessed as reduction in cell viability incubated for 48 hrs by Cell-titer-blue cell viability assay
- Assay type: functional, cell-based
- Condition Summary: RS4-11, 48 h
Endpoint: EC50
Returns: string containing the number followed by the unit.

Consider the molecule shown here: CCCNNC(=O)c1ccc(CNC(=O)/C=C/c2ccccc2)cc1 What is its recorded EC50?
152 nM

* * *

- Method: Drug metabolism in human liver microsomes assessed as o-glucuronidated metabolite formation in presence of UDP glucuronic acid incubated for 12 hrs at 37 degC by electrospray ionization liquid chromatography mass spectrometry
- Format: ADME, Microsome
Endpoint: Drug metabolism

CCCNNC(=O)c1ccc(CNC(=O)c2ccccc2)cc1; Metabolite_Notdetected
CCCCNNC(=O)c1ccc(CNC(=O)c2ccccc2)cc1; Metabolite_Notdetected
CCCNNC(=O)c1ccc(CNC(=O)/C=C/c2ccccc2)cc1; Metabolite_Notdetected
